Tested on: CCRF-CEM
Assay: NCI tumour cell line growth inhibition, 48 h
Active and inactive are the calls of the source. Cut-off read from the data, not from the text of the source: active = GI50 up to about 1.1 µM and inactive = higher.
Your response should consist of one outcome taken from 1 = active, 0 = inactive

Query block: Which result was noted for this molecule in the test: COc1ccc(C(=O)/C=C/c2ccncc2)cc1OC
Result block: 0

Query block: Consider next the molecule O=C(O)c1ccc(C2=Nc3cccc4cccc(c34)N2)cc1 in the same way.
Result block: 0

Query block: Consider next the molecule O=Cc1ccc2[nH]c(=O)oc2c1 in the same way.
Result block: 0

Query block: Consider next the molecule COc1cc(C)c(C(=O)/C=C/c2cc(OC)c(O)c(OC)c2)cc1O in the same way.
Result block: 0

Query block: Consider next the molecule COc1ccc(-c2nc(-c3cc4c(ccc5ccccc54)oc3=O)cs2)cc1 in the same way.
Result block: 0

Query block: Consider next the molecule CC1(c2cccc(Cl)c2)CC(c2cccc(Cl)c2)=C(C#N)C(=C(C#N)C#N)N1 (centres undefined) in the same way.
Result block: 0

Query block: Consider next the molecule Nc1nc(S)nc2snnc12 in the same way.
Result block: 0

Query block: Consider next the molecule CCCC/C=C1\CCC(CN2CCOCC2)C1=O (centres undefined) in the same way.
Result block: 1

Query block: Consider next the molecule CCOc1cnc(C(O)(c2ccccc2)c2ccccc2)o1 in the same way.
Result block: 0

* * *

Tested on: BT-549
Assay: NCI tumour cell line growth inhibition, 48 h
The source made the active and inactive calls. Cut-off read from the data, not from the text of the source: active = GI50 up to about 1.1 µM and inactive = higher.
Your response should consist of one outcome taken from active, inactive

Query block: Which result was noted for this molecule in the test: O=C(O[C@H]1[C@@H](O)[C@H](n2cnc3c(Cl)ncnc32)O[C@@H]1COC(c1ccccc1)(c1ccccc1)c1ccccc1)c1ccccc1
Result block: inactive

Query block: Consider next the molecule CC1=C[P+](c2ccccc2)(c2ccccc2)c2ccccc2O1 in the same way.
Result block: inactive

Query block: Consider next the molecule CN(C)c1ccc(C=c2c3ccccc3n3c2c2c([n+]3C)CCCC2)cc1 in the same way.
Result block: active

* * *

Tested on: SF-268
Assay: NCI tumour cell line growth inhibition, 48 h
Active and inactive are the calls of the source. Cut-off read from the data, not from the text of the source: active = GI50 up to about 1.1 µM and inactive = higher.
Value Kind: GI50

Query block: For the record Cc1ccc(C(=O)Nc2ccc(S(=O)(=O)O)c3cc(S(=O)(=O)O)cc(S(=O)(=O)O)c23)cc1NC(=S)Nc1cc(C(=O)Nc2ccc(S(=O)(=O)O)c3cc(S(=O)(=O)O)cc(S(=O)(=O)O)c23)ccc1C , what value of GI50 is listed for SF-268?
Result block: > 75 µM (inactive)

Query block: Consider next the molecule COc1ccccc1NC(=O)C(=O)C(c1cnc2ccc([N+](=O)[O-])cc2n1)[N+](=O)[O-] (stereo not drawn) in the same way.
Result block: > 100 µM (inactive)

Query block: Consider next the molecule Cc1cccc(C(C)C)c1NC(=O)CC1C(=O)Nc2ccccc2S1(=O)=O (stereo not drawn) in the same way.
Result block: 12.8 µM (inactive)

Query block: Consider next the molecule CCOC(=O)c1ccc(C(=O)C(C(C)=O)C(=O)OC(C)(C)C)n1C (stereo not drawn) in the same way.
Result block: > 100 µM (inactive)

Query block: Consider next the molecule CCn1c2ccccc2c2ccc(C3C(C(=O)OC)=C(C)NC(C)=C3C(=O)OC)cc21 in the same way.
Result block: 73.8 µM (inactive)

Query block: Consider next the molecule COC(=O)[C@@]1(C)CCC[C@]2(C(=O)O)C3Cc4occc4[C@H](C)[C@@H]3CCC21 (stereo partly drawn) in the same way.
Result block: > 100 µM (inactive)

Query block: Consider next the molecule O=C(O[C@H]1[C@@H](O)[C@H](n2cnc3c(Cl)ncnc32)O[C@@H]1COC(c1ccccc1)(c1ccccc1)c1ccccc1)c1ccccc1 in the same way.
Result block: 15.4 µM (inactive)

Query block: Consider next the molecule O=Cc1ccc2ccocc1-2 in the same way.
Result block: > 100 µM (inactive)

* * *

System: IGROV-1
Assay: NCI tumour cell line growth inhibition, 48 h
Active and inactive are the calls of the source. Rule as the data show it: active = GI50 up to about 1.1 µM and inactive = higher.
Your response should consist of one outcome taken from active, inactive

Query block: Which result was noted for this molecule in the test: O=C(CCc1cccc(O)c1)NCCc1cccc(OCc2ccccc2)c1
Result block: inactive

Query block: Consider next the molecule COc1cc(C)c(C(=O)/C=C/c2cc(OC)c(O)c(OC)c2)cc1O in the same way.
Result block: inactive

Query block: Consider next the molecule COC(=O)Nc1nc2cc(S(=O)(=O)n3nnc4ccccc43)ccc2[nH]1 in the same way.
Result block: inactive

Query block: Consider next the molecule COc1ccc2nc3cc(Cl)ccc3c(NCCC(=O)OCC(O)C(O)C(O[C@H](C)C(=O)NC(C)C(=O)NC(CCC(N)=O)C(=O)OCc3ccccc3)C(C=O)NC(C)=O)c2c1 (stereo partly specified) in the same way.
Result block: inactive

Query block: Consider next the molecule Clc1ccc(-c2nc(-c3ccc(Cl)cc3)[s+]s2)cc1 in the same way.
Result block: inactive

Query block: Consider next the molecule Cn1c2c(c3c(=O)[nH]ncc31)Cc1ccccc1-2 in the same way.
Result block: inactive

Query block: Consider next the molecule C=C1CC(COc2ccc3c(C)c(Cl)c(=O)oc3c2)(c2ccccc2)OC1=O (stereo unspecified) in the same way.
Result block: inactive

Query block: Consider next the molecule CC(C)OCC(O)COc1ccc2ccc(=O)oc2c1 (stereo unspecified) in the same way.
Result block: inactive

Query block: Consider next the molecule CC1(C)CCC[C@]2(C)[C@@H]1CC[C@@]13O[C@@H]1C1=C(CO)C(=O)OC1=C[C@@H]23 in the same way.
Result block: inactive

Query block: Consider next the molecule O=C(O)CNn1c(SCC(=O)O)nnc(/C=C/c2c(O)ccc3ccccc23)c1=O in the same way.
Result block: active

Query block: Consider next the molecule COc1cc(O)c(C(=O)/C=C/c2ccc(O)cc2)cc1Oc1ccc(C(=O)/C=C/c2ccc(O)cc2)c(O)c1 in the same way.
Result block: inactive

Query block: Consider next the molecule COC(=O)C(COC(C)=O)NC(=O)/C=C/c1ccc(O)c(OC(C)=O)c1 (stereo unspecified) in the same way.
Result block: inactive

Query block: Consider next the molecule Cc1ccc(C(=O)O)c(CC2Cc3c(C)cccc3C2=O)c1 (stereo unspecified) in the same way.
Result block: inactive

Query block: Consider next the molecule O=c1[nH]c(Nc2ccc(Br)c(C(F)(F)F)c2)nc2[nH]cnc12 in the same way.
Result block: inactive

Query block: Consider next the molecule O=C(O)CCNCCCNCCC(=O)O in the same way.
Result block: inactive

Query block: Consider next the molecule CN1CCN(c2nc3cc(F)ccc3n3cccc23)CC1 in the same way.
Result block: inactive

* * *

Tested on: NCI-H522
Assay: NCI tumour cell line growth inhibition, 48 h
The source made the active and inactive calls. Cut-off read from the data, not from the text of the source: active = GI50 up to about 1.1 µM and inactive = higher.
Value Kind: GI50

Query block: What measured GI50 goes with Cc1cc2nc3ccc(N(C)C)cc3[s+]c2cc1N [TOLONIUM CHLORIDE] ?
Result block: 2.62 µM (inactive)

Query block: Consider next the molecule CC(=O)C(=Cc1cn(C)c(=O)n(C)c1=O)C(C)=O in the same way.
Result block: 16.8 µM (inactive)

Query block: Consider next the molecule O=C(Cc1ccccc1)C(c1ccccc1)S(=O)(=O)c1ccccc1 (configuration not stated) in the same way.
Result block: 88.7 µM (inactive)

Query block: Consider next the molecule CN(CCc1ccccn1)C(=S)N/N=C(\c1ccccc1)c1ccccn1 in the same way.
Result block: < 0.01 µM (active)

Query block: Consider next the molecule Cc1cn(CCCCCCC2=NCCCN2)c(=O)[nH]c1=O in the same way.
Result block: > 100 µM (inactive)

Query block: Consider next the molecule COc1ccc(-[n+]2nc(S(=O)(=O)O)c(/C=C/c3ccc(N(C)C)cc3)cc2C#N)cc1 in the same way.
Result block: > 100 µM (inactive)

Query block: Consider next the molecule FC1(F)[Se]C2C3CCC(C3)C2C1(F)F (configuration not stated) in the same way.
Result block: > 100 µM (inactive)

Query block: Consider next the molecule Nc1nc(S)nc2snnc12 in the same way.
Result block: > 100 µM (inactive)

Query block: Consider next the molecule CC1(C)CCC[C@]2(C)[C@@H]1CC[C@@]13O[C@@H]1C1=C(CO)C(=O)OC1=C[C@@H]23 in the same way.
Result block: 10.1 µM (inactive)

Query block: Consider next the molecule CCOC(=O)c1ccc2nc(-c3ccc(S(=O)(=O)F)cc3)cc(O)c2c1 in the same way.
Result block: 15.8 µM (inactive)

Query block: Consider next the molecule CCOC(=O)c1ccc(NCc2ccc3nc(OC)c(OC)nc3c2)cc1 in the same way.
Result block: > 100 µM (inactive)

Query block: Consider next the molecule C[n+]1c(-c2ccc(/C=C/C=N\NC(=O)c3ccc(C(=O)N/N=C\C=C\c4ccc(-c5cn6ccccc6[n+]5C)cc4)cc3)cc2)cn2ccccc21 in the same way.
Result block: > 100 µM (inactive)

Query block: Consider next the molecule O=[N+]([O-])c1cc(CCl)ccc1CCl in the same way.
Result block: 1.73 µM (inactive)

Query block: Consider next the molecule O=C(/C=C\c1cccc2ccccc12)c1cccs1 in the same way.
Result block: 2.52 µM (inactive)

Query block: Consider next the molecule O=C(CC(=O)n1nc(-c2ccccc2)c(/N=N/c2ccc(Cl)cc2)c1-c1ccccc1)Nc1ccc(Cl)cc1 in the same way.
Result block: > 100 µM (inactive)

Query block: Consider next the molecule COc1ccc2nc3cc(Cl)ccc3c(NCCC(=O)OCC(O)C(O)C(O[C@H](C)C(=O)NC(C)C(=O)NC(CCC(N)=O)C(=O)OCc3ccccc3)C(C=O)NC(C)=O)c2c1 (some centres not stated) in the same way.
Result block: 14.5 µM (inactive)

Query block: Consider next the molecule O=C1Nc2ccc(Br)cc2/C1=N/Nc1ccc([N+](=O)[O-])cc1 in the same way.
Result block: 31.3 µM (inactive)

Query block: Consider next the molecule COc1ccc2oc(=O)c(-c3cc4c(c(C)n3)c(=O)oc3ccc(OC)cc34)cc2c1 in the same way.
Result block: > 100 µM (inactive)

Query block: Consider next the molecule CSc1ncnc2c1cnn2Cc1cnnn1COCC(O)CO (configuration not stated) in the same way.
Result block: 11.1 µM (inactive)

Query block: Consider next the molecule O=c1nc(-c2ccccc2)scc1-c1ccccc1 in the same way.
Result block: 21 µM (inactive)

Query block: Consider next the molecule COc1ccc(C(C)NNC(=O)c2cc[n+]([BH2-]C#N)cc2)c(OC)c1 (configuration not stated) in the same way.
Result block: > 100 µM (inactive)

Query block: Consider next the molecule O=C(O)COc1ccc(O)c2c1C(=O)CCCC2=O in the same way.
Result block: > 100 µM (inactive)

Query block: Consider next the molecule O=C(c1ccc(Cl)cc1Cl)N(Cc1cccnc1)C(=S)N(Cc1cccnc1)C(=O)c1ccc(Cl)cc1Cl in the same way.
Result block: 2.94 µM (inactive)

Query block: Consider next the molecule COc1cc2cc3c4c(cc(OC)c(OC)c4c2cc1OC)CCN3C(=O)CCC(=O)O in the same way.
Result block: > 100 µM (inactive)

Query block: Consider next the molecule c1ccc(CCNc2ccccn2)nc1 in the same way.
Result block: > 100 µM (inactive)

Query block: Consider next the molecule CC(=O)O/N=C/c1cc2c(cc1Br)OCO2 in the same way.
Result block: 185 µM (inactive)

Query block: Consider next the molecule CCOC(=O)/C=C/c1c[nH]c(=O)[nH]c1=O in the same way.
Result block: > 75 µM (inactive)

Query block: Consider next the molecule COC(=O)Nc1nc2cc(S(=O)(=O)n3nnc4ccccc43)ccc2[nH]1 in the same way.
Result block: 36.8 µM (inactive)

Query block: Consider next the molecule C/C1=C\CC[C@@]2(C)O[C@@H]2C[C@@H](C2(C)CO2)CC/C(C)=C/CC1 (some centres not stated) in the same way.
Result block: 23.7 µM (inactive)

Query block: Consider next the molecule CCCCOC(=O)Nc1ccc(S(=O)(=O)Nc2ccccc2Cl)cc1 in the same way.
Result block: 18.5 µM (inactive)

Query block: Consider next the molecule N#C/C(=N\c1ccccc1N(C(=O)c1ccccc1)C(=O)c1ccccc1)c1ccccc1 in the same way.
Result block: 4.91 µM (inactive)

Query block: Consider next the molecule C#Cc1c(C)c(/C=C/C(C)=C/C=C/C(C)=C/C(=O)OC)n(C)c1C in the same way.
Result block: > 100 µM (inactive)
